- Test system: Mycosphaerella graminicola; Anamorph: Septoria tritici; Bayer Code SEPTTR (standard laboratory isolate, SI SEPTTR)
- assayComment: Type A (high volume) assay, leaf blotch of wheat, standard laboratory SEPTTR isolate (SI SEPTTR)
- Format: in vivo, Mycosphaerella graminicola on wheat plants (variety Yuma)
- conditionLabel: Zymoseptoria tritici, 24 h, standard laboratory isolate; high volume; 50 ppm; 1 Day Protectant; wheat (Yuma); read-out: Disease Control, SI SEPTTR Type A Assay (50 ppm) 1 DP
Overview of reported pest or weed control at 50 ppm across a group of compounds:

Below: 5 compounds and their reported pest or weed control at 50 ppm.
Entry OC(Cc1cccc(Cl)c1)(c1cncnc1)c1ccc(-c2ccc(OC(F)(F)F)cc2)cn1 (stereo not shown) , pest or weed control at 50 ppm reported as 60 to 79%

For CC(C)(C)C(O)(c1ccc(-c2ccc(OC(F)(F)F)cc2)cn1)c1cncs1 (stereo not shown) the compound record lists pest or weed control at 50 ppm as 80 to 100%

Input C=Cc1ccc(-c2ccc(C(O)(c3cncnc3)C(C)(C)C)nc2)cc1 (stereo not shown) . Output pest or weed control at 50 ppm: 60 to 79%

// field: pest or weed control at 50 ppm; key: CC(C)C(O)(c1ccc(-c2ccc(OC(F)(F)F)cc2)cn1)c1cncs1 (stereo not shown) ; value = 80 to 100%

Reported pest or weed control at 50 ppm of CC(C)(C)C(O)(c1cncnc1)c1ccc(-c2ccc(OC(F)(F)F)cc2F)cn1 (stereo not shown) : 80 to 100%

API: the following record is the query input.
So for CC(C)(C)C(O)(c1cncnc1)c1ccc(-c2ccc(CC#N)cc2)cn1 (stereo not shown) , the logged pest or weed control at 50 ppm turned out to be 80 to 100%
